Reported CC50 values follow for various compounds
- Tested on: CCRF-CEM
- measurement-protocol: Cytotoxicity (TC50) was measured by MTT transformation assay
- Format: functional
- condition-info: Homo sapiens, read-out: TC50 (the source's name)
Reply numerically in µM, unit not repeated.

Examples from the recorded data:
>  <smiles-entry>
N#Cc1ccc2ccc(/C=C/c3ccc(O)c(O)c3)nc2c1O

>  <measure>
CC50

>  <unit-of-measurement>
µM

>  <result>
6.2

$$$$
>  <smiles-entry>
Oc1cccc2ccc(/C=C/c3ccccc3)nc12

>  <measure>
CC50

>  <unit-of-measurement>
µM

>  <result>
50.1

$$$$
>  <smiles-entry>
Oc1ccc(/C=C/c2ccc3ccccc3n2)cc1O

>  <measure>
CC50

>  <unit-of-measurement>
µM

>  <result>
12.3

$$$$
>  <smiles-entry>
Oc1ccc(/C=C/c2ccc3cccc(O)c3n2)cc1O

>  <measure>
CC50

>  <unit-of-measurement>
µM

>  <result>
8.1

$$$$

Reported CC50 of "O=C(O)c1ccc2ccc(/C=C/c3cc(O)c(O)c(O)c3)nc2c1O" : 10.7
